- System under test: Cq-FABP (Cherax quadricarinatus, UniProt L0I6Z9)
- Sequence (L0I6Z9 entry or part of it): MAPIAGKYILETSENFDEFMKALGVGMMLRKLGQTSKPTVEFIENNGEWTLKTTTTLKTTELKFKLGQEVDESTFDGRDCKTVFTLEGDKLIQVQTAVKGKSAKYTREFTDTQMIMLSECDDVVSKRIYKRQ
- Experiment notes: cis-Parinaric acid fluorescence intensity titration and competitive displacement
- Format: binding
Property name: pKd
Quick note: pKd means taking -log10 of the concentration in moles per liter.

[Q] Recorded pKd for "CCCCCCCC/C=C\CCCCCCCC(=O)O" , please?
[A] 5.89

====

- System under test: Cq-FABP (Cherax quadricarinatus, UniProt L0I6Z9)
- Experiment notes: ANS fluorescence intensity titration and equilibrium displacement of ANS by fatty acids
- Assay type: binding
- Setup conditions: average of the Kd,ANS values from the intensity and FRET procedures; read-out: average Kd,ANS
Property name: pKd
Quick note: pKd means taking -log10 of the concentration in moles per liter.

[Q] Recorded pKd for O=S(=O)(O)c1cccc2cccc(Nc3ccccc3)c12 [ANS, 8-Anilino-1-naphthalenesulfonate] , please?
[A] 4.56

====

- System under test: Cq-FABP (Cherax quadricarinatus)
- Experiment notes: cis-Parinaric acid fluorescence intensity titration and competitive displacement
- Assay type: binding
- Setup conditions: fluorescence enhancement upon binding, 5 µM Cq-FABP, buffer C + 10% DMSO (Fig. S3B); read-out: Kd of cis-parinaric acid
Property name: Kd (µM)
Report as a plain number; the unit µM is understood.

[Q] Recorded Kd for CC\C=C/C=C/C=C/C=C\CCCCCCCC(=O)O [cis-parinaric acid, reference compound] , please?
[A] 31.2

====

- System under test: Cq-FABP (Cherax quadricarinatus, UniProt L0I6Z9)
- Experiment notes: Steady-state FRET between the single Trp (W49) and ANS, Trp quenching and recovery by PA
- Type: binding
- Setup conditions: FRET efficiency parameter, from slope of Kd app,PA versus [ANS] (Fig. 5B), average Kd,ANS 27.85 µM; read-out: Kd,PA
Property name: pKd
Quick note: pKd means taking -log10 of the concentration in moles per liter.

[Q] Recorded pKd for CCCCCCCCCCCCCCCC(=O)O [PA, Palmitic acid] , please?
[A] 6.08

====

- System under test: Cq-FABP (Cherax quadricarinatus)
- Experiment notes: Steady-state FRET between the single Trp (W49) and ANS, Trp quenching and recovery by PA
- Type: binding
- Setup conditions: from Δ%FRET versus [ANS] (Fig. 4D), binding to fatty acid binding site only; read-out: Kd,ANS
Property name: pKd
Quick note: pKd means taking -log10 of the concentration in moles per liter.

[Q] Kindly state the measured pKd obtained for O=S(=O)(O)c1cccc2cccc(Nc3ccccc3)c12 [ANS, 8-Anilino-1-naphthalenesulfonate] with Cq-FABP (Cherax quadricarinatus).
[A] 4.56

====

- System under test: Cq-FABP (Cherax quadricarinatus)
- Experiment notes: BODIPY-C16 steady-state fluorescence anisotropy titration and competition
- Format: binding
- Setup conditions: from IC50 according to the Cheng-Prusoff relationship; 200 nM BODIPY-C16, 5 µM Cq-FABP; read-out: apparent Kd of Cq-FABP/DAUDA complex
pKd: −log10 of the molar value.
Property name: pKd

[Q] Kindly state the measured pKd obtained for CN(C)c1cccc2c(S(=O)(=O)NCCCCCCCCCCC(=O)O)cccc12 [DAUDA, reference compound] with Cq-FABP (Cherax quadricarinatus).
[A] ~3.60

====

- System under test: UniProt:L0I6Z9
- Experiment notes: ANS fluorescence intensity titration and equilibrium displacement of ANS by fatty acids
- Type: binding
- Setup conditions: calculated from equilibrium displacement experiments using the fluorescence intensity of ANS (Eq. 1); read-out: Kd,FA
Consider the following molecules; for each one, report its pKd.
Quick note: pKd means taking -log10 of the concentration in moles per liter.

[Q] Kindly state the measured pKd obtained for CC/C=C\C/C=C\C/C=C\C/C=C\C/C=C\C/C=C\CCC(=O)O [DHA, cis-4,7,10,13,16,19-docosahexaenoic acid] with UniProt:L0I6Z9.
[A] 5.24

[Q] Kindly state the measured pKd obtained for "CCCCCCCCCCCCCCCC(=O)O" with UniProt:L0I6Z9.
[A] 5.96

[Q] Kindly state the measured pKd obtained for CC/C=C\C/C=C\C/C=C\C/C=C\C/C=C\CCCC(=O)O [EPA, cis-5,8,11,14,17-eicosapentaenoic acid] with UniProt:L0I6Z9.
[A] 5.54

[Q] Kindly state the measured pKd obtained for "CCCCC/C=C\C/C=C\CCCCCCCC(=O)O" with UniProt:L0I6Z9.
[A] 5.51
